- Tested on: YAP/TAZ-TEAD transcription
- protocol.details: Reporter gene assay for measuring the inhibition of YAP/TAZ-TEAD transcription (TEAD-responsive element luciferase reporter in Hek293T cells)
- Format: cell-based
- conditions.used: Homo sapiens, HEK-293T, 24 h, Hek293T cells transiently transfected with TEAD-responsive element luciferase reporter, 24 hours incubation
experimental.endpoint: EC50

[[record]]
molecule = "C=CC(=O)NCC1CN(c2ccc(SC(F)(F)F)cc2)c2ccnn2C1 (centres unmarked)"
observed_result = "< 1 µM"

[[record]]
molecule = "C=CC(=O)NCC1CN(c2ccc(C(F)(F)F)cc2)c2cnc(C(F)(F)F)n2C1 (centres unmarked)"
observed_result = "< 1 µM"

[[record]]
molecule = "CN(C)C/C=C/C(=O)NCC1CN(c2ccc(C(F)(F)F)cc2)c2ccnn2C1 (centres unmarked)"
observed_result = "1 to 20 µM"

[[record]]
molecule = "Cn1ncc2c1CC(CNS(C)(=O)=O)CN2c1ccc(OC(F)(F)F)cc1 (centres unmarked)"
observed_result = "> 20 µM"

[[record]]
molecule = "CCC(=O)NCC1Cc2nn(C)cc2N(c2ccc(OC(F)(F)F)cc2)C1 (centres unmarked)"
observed_result = "1 to 20 µM"


## Task Find the recorded EC50 belonging to CNC(=O)C1CN(c2ccc(C(F)(F)F)cc2)c2ccnn2C1 (centres unmarked) and report it.
## Result > 20 µM

## Task Find the recorded EC50 belonging to C=CC(=O)N1CCC2(C1)CN(c1ccc(C(F)(F)F)cc1)c1ccnn1C2 (centres unmarked) and report it.
## Result < 1 µM

## Task Find the recorded EC50 belonging to C=CC(=O)NCC1Cc2c(cnn2Cc2cccc(C(N)=O)c2)N(c2ccc(C(F)(F)F)cc2)C1 (centres unmarked) and report it.
## Result < 1 µM

###

- Test system: YAP/TAZ-TEAD transcription
- protocol.details: Reporter gene assay for measuring the inhibition of YAP/TAZ-TEAD transcription (TEAD-responsive element luciferase reporter in Hek293T cells)
- Assay type: cell-based
- conditions.used: Hek293T cells transiently transfected with TEAD-responsive element luciferase reporter, 24 hours incubation
pEC50: −log10 of the molar value.
Let's look at some compounds and their measured pEC50.

[[record]]
compound = "C=CC(=O)NCC1CN(c2ccc(S(F)(F)(F)(F)F)cc2)c2ccnn2C1 (single isomer, unassigned) [Cpd. No. 023-En1]"
observed_result = "> 6.00"

[[record]]
compound = "C=CC(=O)NCC1Cc2c(cnn2C(F)F)N(c2ccc(C(F)(F)F)cc2)C1 (single isomer, unassigned) [Cpd. No. 084-En2]"
observed_result = "> 6.00"


Query compound follows.
## Task Find the recorded pEC50 belonging to C=CC(=O)NCC1CN(c2ccc(Cl)cc2)c2ccnn2C1 (single isomer, unassigned) [Cpd. No. 005-En1] and report it.
## Result > 6.00

###

- Tested on: YAP/TAZ-TEAD transcription
- protocol.details: Reporter gene assay for measuring the inhibition of YAP/TAZ-TEAD transcription (TEAD-responsive element luciferase reporter in Hek293T cells)
- Format: cell-based
- conditions.used: Homo sapiens, HEK-293T, 24 h, Hek293T cells transiently transfected with TEAD-responsive element luciferase reporter, 24 hours incubation
Let's look at some molecules and their measured EC50.

## Task Find the recorded EC50 belonging to CCC(=O)NCC1Cc2nn(C)cc2N(c2ccc(C(F)(F)F)cc2)C1 (centres unmarked) [Cpd. No. 073] and report it.
## Result < 1000 nM

## Task Find the recorded EC50 belonging to C=CC(=O)NCC1CN(c2cccc(F)c2)c2ccnn2C1 (centres unmarked) [Cpd. No. 004] and report it.
## Result < 1000 nM

## Task Find the recorded EC50 belonging to CCC(=O)NCC1CN(Cc2cccc(C(F)(F)F)c2)c2ccnn2C1 (centres unmarked) [Cpd. No. 053] and report it.
## Result > 20000 nM

## Task Find the recorded EC50 belonging to C=CC(=O)NCC1CN(c2ccc(OC(F)(F)F)cc2)c2cc(C(F)(F)F)nn2C1 (single isomer, unassigned) [Cpd. No. 035-En1] and report it.
## Result < 1000 nM

## Task Find the recorded EC50 belonging to C=CC(=O)NCC1Cc2nn(C)cc2N(c2ccc(C(F)(F)F)cc2)C1 (centres unmarked) [Cpd. No. 069] and report it.
## Result < 1000 nM

## Task Find the recorded EC50 belonging to C=CC(=O)NCC1CN(c2ccc(Cl)cc2)c2ccnn2C1 (centres unmarked) [Cpd. No. 005] and report it.
## Result < 1000 nM

## Task Find the recorded EC50 belonging to C=CC(=O)NCC1Cc2nn(C)cc2N(c2ccc(OC(F)(F)F)cc2)C1 (centres unmarked) [Cpd. No. 071] and report it.
## Result < 1000 nM

## Task Find the recorded EC50 belonging to Cn1cc2c(n1)CC(CNS(C)(=O)=O)CN2c1ccc(C(F)(F)F)cc1 (centres unmarked) [Cpd. No. 077] and report it.
## Result 1000 to 20000 nM
